pIC50: −log10 of the molar value.
pIC50, panel of kinases (Homo sapiens, UniProt P51813): measured values
OUTCOME MEASURE: pIC50

INSERT INTO assay_data (compound, reading) VALUES
  ('CC(=O)N[C@@H]1CCN(c2n[nH]c3nccc(-c4ccc([C@@H](C)NC(=O)c5cc(C(C)(C)O)on5)c(F)c4)c23)C1 [Example 349]', 5.88);

A: CC(C)(C)c1nc(C(=O)NCc2ccc(-c3ccnc4[nH]nc(N[C@@H]5CCNC5)c34)cc2F)no1 [Compound 2]
B: O=C(NCc1ccc(-c2ccnc3[nH]nc(N[C@@H]4CCNC4)c23)cc1F)c1ccc(C2CC2)cc1 [Compound 35]
Kindly identify the item with the lower pIC50 figure among these two: A and B Returns: label corresponding to the selected item.
B

A: C=CC(=O)N1CC[C@@H](Nc2n[nH]c3nccc(-c4ccc(CNC(=O)c5ccc(C(=C)C)cc5)c(F)c4)c23)C1 [Compound 47]
B: CCC(=O)N1CC(Nc2n[nH]c3nccc(-c4ccc(CNC(=O)c5noc(C(C)(C)C)n5)c(F)c4)c23)C1 [Example 130]
Kindly identify the item with the lower pIC50 figure among these two: A and B Returns: label corresponding to the selected item.
B
(B: 5.45, A: 5.74)

P: CC(=O)N[C@@H]1CCN(c2n[nH]c3nccc(-c4ccc(CNC(=O)c5nc6ccccc6o5)c(F)c4)c23)C1 [Example 394]
Q: C=CC(=O)N1CC=C(c2n[nH]c3nccc(-c4ccc(CNC(=O)c5noc(C(C)(C)C)n5)c(F)c4)c23)C1 [Example 281]
R: CC(=O)N1CC[C@H](Oc2n[nH]c3nccc(-c4ccc(CNC(=O)c5nc(C(C)(C)C)no5)c(F)c4)c23)C1 [Example 284]
Sequence the entries by pIC50, beginning with the highest number. Dear reader, please state the labels in the requested order.
Q, P, R

I: CC(C)(C)c1nc(C(=O)NCc2ccc(-c3ccnc4[nH]nc(NC5CCNCC5)c34)cc2F)no1 [Example 109]
II: C[C@@H](NC(=O)c1nc(C(C)(C)C)no1)c1ccc(-c2ccnc3[nH]nc(N4CCOCC4)c23)cc1 [Example 219]
III: C=CC(=O)N1CC[C@@H](Nc2n[nH]c3nccc(-c4ccc(CC(=O)Nc5noc(C(C)(C)C)n5)c(F)c4)c23)C1 [Example 135]
Arrange the 3 compounds by rising pIC50, starting with the smallest. Dear reader, please state the labels in the requested order.
I, II, III
(I: 5.38, II: 6.24, III: 6.65)

###

target: panel of kinases (Homo sapiens)
Sequence (P51813 whole entry): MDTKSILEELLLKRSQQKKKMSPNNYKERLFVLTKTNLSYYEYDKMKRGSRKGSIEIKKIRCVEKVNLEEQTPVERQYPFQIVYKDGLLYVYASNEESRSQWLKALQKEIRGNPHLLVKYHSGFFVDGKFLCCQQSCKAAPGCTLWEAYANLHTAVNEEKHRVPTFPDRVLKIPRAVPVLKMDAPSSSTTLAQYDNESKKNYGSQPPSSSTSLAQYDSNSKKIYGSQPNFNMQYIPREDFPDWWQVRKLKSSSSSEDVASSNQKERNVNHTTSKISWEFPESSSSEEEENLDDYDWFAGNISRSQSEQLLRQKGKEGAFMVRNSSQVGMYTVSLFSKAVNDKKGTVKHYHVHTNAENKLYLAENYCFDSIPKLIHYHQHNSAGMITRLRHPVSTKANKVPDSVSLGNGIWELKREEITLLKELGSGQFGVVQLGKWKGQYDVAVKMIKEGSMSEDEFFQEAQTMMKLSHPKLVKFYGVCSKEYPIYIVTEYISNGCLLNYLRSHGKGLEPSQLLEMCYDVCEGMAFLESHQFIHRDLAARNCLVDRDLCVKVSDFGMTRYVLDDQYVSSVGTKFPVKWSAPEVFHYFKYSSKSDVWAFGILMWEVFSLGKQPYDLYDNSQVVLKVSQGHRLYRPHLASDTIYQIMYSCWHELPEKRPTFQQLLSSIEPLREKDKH
OUTCOME MEASURE: IC50 (nM)

INSERT INTO measurements (smiles_data, outcome_measure, unit_name, reading) VALUES
  ('C=CC(=O)N(C)[C@@H]1CCN(c2n[nH]c3nccc(-c4ccc(CNC(=O)c5nc(C(C)(C)C)no5)c(F)c4)c23)C1', 'IC50', 'nM', 15.8),
  ('C=CC(=O)N1CC[C@@H](Nc2n[nH]c3nccc(-c4ccc(C5(NC(=O)c6nc(C(C)(C)C)no6)CC5)cc4)c23)C1', 'IC50', 'nM', 218),
  ('C=CC(=O)N1CC[C@@H](Nc2n[nH]c3nccc(-c4ccc(CNC(=O)c5cnn(C(C)(C)C)c5)c(F)c4)c23)C1', 'IC50', 'nM', 76),
  ('CC(=O)N1CC[C@H](Nc2n[nH]c3nccc(-c4ccc(CNC(=O)c5nc(C(C)(C)C)no5)c(F)c4)c23)C1', 'IC50', 'nM', 8340),
  ('C=CC(=O)N1CCC[C@@H](Nc2n[nH]c3nccc(-c4ccc(CNC(=O)c5noc(C(C)(C)C)n5)c(F)c4)c23)C1', 'IC50', 'nM', 115),
  ('C[C@@H]1[C@H](Nc2n[nH]c3nccc(-c4ccc(CNC(=O)c5cc(C(C)(C)O)on5)c(F)c4)c23)CCCN1C(=O)N(C)C', 'IC50', 'nM', 8660),
  ('CC#CC(=O)N1CC[C@@H](Nc2n[nH]c3nccc(-c4ccc(CNC(=O)c5cc(C(C)(C)C)on5)c(F)c4)c23)C1', 'IC50', 'nM', 92),
  ('C[C@@H](NC(=O)c1nc(C(C)(C)C)no1)c1ccc(-c2ccnc3[nH]nc(C4CCN(C(=O)N(C)C)CC4)c23)cc1', 'IC50', 'nM', 5870),
  ('C[C@H]1CC[C@@H](Nc2n[nH]c3nccc(-c4ccc(CNC(=O)c5noc(C(C)(C)C)n5)c(F)c4)c23)CN1C(=O)CC#N', 'IC50', 'nM', 1770),
  ('C=CC(=O)N1CC[C@@H](Nc2n[nH]c3nccc(-c4ccc(CNC(=O)c5ccc(OC)cc5)c(F)c4)c23)C1', 'IC50', 'nM', 89);

1: C=CC(=O)N1CC[C@@H](Nc2n[nH]c3nccc(-c4ccc(CNC(=O)c5ccc(C6CC6)cc5)c(F)c4)c23)C1
2: C=CC(=O)N[C@H]1CCCC[C@@H]1Nc1n[nH]c2nccc(-c3ccc(CNC(=O)c4cc(C(C)(C)C)on4)c(F)c3)c12
I'd appreciate it if you could identify which of 1 and 2 has the greater IC50. Returns: label corresponding to the selected item.
2
(2: 3030 nM, 1: 54 nM)

A: C=CC(=O)N1CC[C@@H](Nc2n[nH]c3nccc(-c4cccc(NC(=O)c5ccc(C(C)(C)C)cc5)c4CO)c23)C1
B: CC(=O)N1C[C@H](Nc2n[nH]c3nccc(-c4ccc(CNC(=O)c5noc(C(C)(C)C)n5)c(F)c4)c23)CC[C@@H]1C
I'd appreciate it if you could identify which of A and B has the greater IC50. Returns: label corresponding to the selected item.
B

1: COC(=O)N1C[C@H](Nc2n[nH]c3nccc(-c4ccc(CNC(=O)c5nc(C(C)(C)C)no5)c(F)c4)c23)CC[C@@H]1C
2: C[C@H]1CC[C@@H](Nc2n[nH]c3nccc(-c4ccc(CNC(=O)c5nc(C(C)(C)C)no5)c(F)c4)c23)CN1C(=O)n1ccnc1
I'd appreciate it if you could identify which of 1 and 2 has the greater IC50. Returns: label corresponding to the selected item.
2

###

Biological target: TEC (Homo sapiens, UniProt P42680)
Sequence (P42680 1-631): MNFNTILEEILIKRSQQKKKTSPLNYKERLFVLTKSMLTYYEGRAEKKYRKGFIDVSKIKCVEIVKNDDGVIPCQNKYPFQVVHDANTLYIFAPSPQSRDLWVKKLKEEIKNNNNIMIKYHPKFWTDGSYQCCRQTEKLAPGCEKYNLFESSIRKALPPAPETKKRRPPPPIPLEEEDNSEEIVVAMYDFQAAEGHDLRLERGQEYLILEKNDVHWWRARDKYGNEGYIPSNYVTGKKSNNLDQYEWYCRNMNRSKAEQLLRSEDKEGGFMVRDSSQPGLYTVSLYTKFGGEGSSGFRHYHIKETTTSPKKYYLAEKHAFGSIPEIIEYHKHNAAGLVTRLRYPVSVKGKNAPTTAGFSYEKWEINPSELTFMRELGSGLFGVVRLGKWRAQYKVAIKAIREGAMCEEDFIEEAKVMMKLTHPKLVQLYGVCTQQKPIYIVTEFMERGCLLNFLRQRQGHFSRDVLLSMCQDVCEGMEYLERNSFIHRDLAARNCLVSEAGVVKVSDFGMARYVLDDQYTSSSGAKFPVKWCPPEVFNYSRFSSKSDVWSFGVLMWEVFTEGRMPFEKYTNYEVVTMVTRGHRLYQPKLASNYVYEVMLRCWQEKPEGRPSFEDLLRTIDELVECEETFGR
Experiment: Inhibition of a panel of kinases (in vitro HotSpot kinase assay, 33P-ATP, 1 μM ATP)
Assay type: biochemical
Conditions: ratio of TEC IC50 to Btk IC50 (selectivity)
OUTCOME MEASURE: TEC/Btk

INSERT INTO measurements (compound, reading) VALUES
  ('CCC(=O)N1CC(Nc2n[nH]c3nccc(-c4ccc(CNC(=O)c5noc(C(C)(C)C)n5)c(F)c4)c23)C1 [Example 130]', 1039);

I: C=CC(=O)N1CCC(Nc2n[nH]c3nccc(-c4ccc(CNC(=O)c5ccc(C(C)(C)C)cc5)c(F)c4)c23)CC1 [Example 104]
II: CN(C)C(=O)N1CCC[C@@H](Nc2n[nH]c3nccc(-c4ccc(CNC(=O)c5noc(C(C)(C)C)n5)c(F)c4)c23)C1 [Example 116]
III: C[C@H]1CC[C@@H](Nc2n[nH]c3nccc(-c4ccc(CNC(=O)c5cc(C(C)(C)C)on5)c(F)c4)c23)CN1 [Example 144]
Arrange the 3 compounds by rising TEC/Btk, starting with the smallest. Dear reader, please state the labels in the requested order.
III, II, I

###

Target: UniProtKB P42680
Sequence (P42680 1-631): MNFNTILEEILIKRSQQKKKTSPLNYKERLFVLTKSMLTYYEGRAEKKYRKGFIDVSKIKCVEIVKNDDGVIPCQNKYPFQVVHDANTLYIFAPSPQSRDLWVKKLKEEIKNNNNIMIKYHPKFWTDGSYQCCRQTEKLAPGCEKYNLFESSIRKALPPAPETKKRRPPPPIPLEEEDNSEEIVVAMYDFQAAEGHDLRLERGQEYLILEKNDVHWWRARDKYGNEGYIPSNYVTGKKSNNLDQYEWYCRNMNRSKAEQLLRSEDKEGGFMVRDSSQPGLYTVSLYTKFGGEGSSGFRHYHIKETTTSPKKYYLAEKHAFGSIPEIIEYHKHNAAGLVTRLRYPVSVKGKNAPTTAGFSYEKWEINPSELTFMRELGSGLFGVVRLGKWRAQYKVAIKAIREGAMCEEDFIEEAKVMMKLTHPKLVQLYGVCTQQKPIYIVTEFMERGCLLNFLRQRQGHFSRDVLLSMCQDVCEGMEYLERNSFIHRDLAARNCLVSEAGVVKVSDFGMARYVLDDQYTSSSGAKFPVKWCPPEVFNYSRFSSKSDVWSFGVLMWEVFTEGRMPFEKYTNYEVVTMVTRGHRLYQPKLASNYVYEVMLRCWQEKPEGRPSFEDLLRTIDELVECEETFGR
Test: Inhibition of a panel of kinases (in vitro HotSpot kinase assay, 33P-ATP, 1 μM ATP)
Assay type: biochemical
Conditions: ratio of TEC IC50 to Btk IC50 (selectivity)
OUTCOME MEASURE: TEC/Btk

INSERT INTO results (compound, system_name, reading) VALUES
  ('CC(C)(C)c1ccc(C(=O)Nc2cccc(-c3ccnc4[nH]nc(N[C@H]5CC[C@H](O)CC5)c34)c2)cc1 [Compound 13]', 'UniProtKB P42680', 10),
  ('CC(C)(C)c1noc(C(=O)NCc2ccc(-c3ccnc4[nH]nc(N5CC[C@H](N)C5)c34)cc2F)n1 [Example 159]', 'UniProtKB P42680', 408),
  ('C=CC(=O)N1CC[C@@H](Nc2n[nH]c3nccc(-c4cccc(NC(=O)c5ccc(C(C)(C)C)cc5)c4CO)c23)C1 [Example 161]', 'UniProtKB P42680', 558);

a: CC(C)(C)c1noc(C(=O)NCc2ccc(-c3ccnc4[nH]nc(N5CCC(NC(=O)C6CC6)CC5)c34)cc2F)n1 [Example 207]
b: C[C@H]1CC[C@@H](Nc2n[nH]c3nccc(-c4ccc(CN5CCn6c(cc7c6CC(C)(C)C7)C5=O)c(F)c4)c23)CN1C(=O)N(C)C [Example 239]
Kindly identify the item with the lower TEC/Btk figure among these two: a and b Returns: label corresponding to the selected item.
b
(b: 384, a: 2173)

P: C=CC(=O)N1CCC(Cc2n[nH]c3nccc(-c4ccc(CNC(=O)c5noc(C(C)(C)C)n5)c(F)c4)c23)C1 (centres unmarked) [Example 275]
Q: C=CC(=O)N1CC[C@@H](Nc2n[nH]c3nccc(-c4cc(F)cc(CNC(=O)c5noc(C(C)(C)C)n5)c4)c23)C1 [Example 88]
R: CC(C)(C)c1nc(C(=O)NCc2ccc(-c3ccnc4[nH]nc(N[C@@H]5CCNC5)c34)cc2F)no1 [Compound 2]
Arrange the 3 compounds by rising TEC/Btk, starting with the smallest. Dear reader, please state the labels in the requested order.
Q, R, P

I: C=CC(=O)N1CC[C@@H](Nc2n[nH]c3nccc(-c4ccc(CNC(=O)c5cc(C(C)(C)C)on5)c(F)c4)c23)C1 [Example 65]
II: CC#CC(=O)N1CC[C@@H](Nc2n[nH]c3nccc(-c4ccc(C5(NC(=O)c6noc(C(C)(C)C)n6)CC5)cc4)c23)C1 [Compound 28]
III: C=CC(=O)N1CC[C@@H](Nc2n[nH]c3nccc(-c4ccc(CNC(=O)c5cnc(C(C)C)o5)c(F)c4)c23)C1 [Example 176]
IV: C=CC(=O)N1CC[C@@H](Nc2n[nH]c3nccc(-c4ccc(CNC(=O)c5noc(CC)n5)c(F)c4)c23)C1 [Example 84]
Arrange the 4 compounds by rising TEC/Btk, starting with the smallest. Dear reader, please state the labels in the requested order.
IV, III, II, I
